Would you kindly list growth at 10 µM for each of these compounds?
- assay info: Growth inhibition of human OVCAR5 cells assessed as cell growth at 10 uM incubated for 48 hrs by sulforhodamine B assay relative to control
- Assay type: functional
- experimental conditions: OVCAR-5, 48 h, read-out: Activity
The answer is to be given in %; state only the numeric part.

Problem: Please indicate growth at 10 µM recorded for C[C@@H]1NC(c2ccc(Cl)cc2Cl)=Nc2nc3ccccn3c2C1=O
Solution: 91.2

Problem: In one line, give reported growth at 10 µM of the entry C[C@@H]1NC(c2ccc(Cl)cc2)=Nc2nc3ccccn3c2C1=O .
Solution: 109

Problem: Item C[C@@H]1NC(c2ccc3ccccc3c2)=Nc2nc3ccccn3c2C1=O : provide growth at 10 µM
Solution: 90.6

Problem: Specify growth at 10 µM for CC(C)(C)OC[C@@H]1NC(c2ccc(Br)cc2)=Nc2nc3ccccn3c2C1=O and stop.
Solution: 105

====

- assay info: Growth inhibition of human SNB75 cells assessed as cell growth at 10 uM incubated for 48 hrs by sulforhodamine B assay relative to control
- Format: functional
- experimental conditions: SNB-75, 48 h, read-out: Activity
endpoint label: growth at 10 µM (%)
Could you give me the number in %? Just the number is fine.

Problem: Report measured growth at 10 µM; entry is CC(C)(C)OC[C@@H]1NC(c2ccc(Br)cc2)=Nc2nc3ccccn3c2C1=O
Solution: 77.4

Problem: Determine its reported growth at 10 µM: C[C@@H]1NC(c2ccc(Cl)cc2Cl)=Nc2nc3ccccn3c2C1=O
Solution: 58.7

Problem: Note growth at 10 µM for the compound shown: C[C@@H]1NC(c2ccc3ccccc3c2)=Nc2nc3ccccn3c2C1=O
Solution: 37.1

Problem: State its growth at 10 µM for this compound: C[C@@H]1NC(c2ccc(Cl)cc2)=Nc2nc3ccccn3c2C1=O
Solution: 92.5

====

- assay info: Growth inhibition of human 786-0 cells assessed as cell growth at 10 uM incubated for 48 hrs by sulforhodamine B assay relative to control
- Format: functional
- experimental conditions: 786-0, 48 h, read-out: Activity
endpoint label: growth at 10 µM

Problem: In one line, give reported growth at 10 µM of the entry C[C@@H]1NC(c2ccc3ccccc3c2)=Nc2nc3ccccn3c2C1=O .
Solution: 69.3%

Problem: Return growth at 10 µM for the following compound: C[C@@H]1NC(c2ccc(Cl)cc2Cl)=Nc2nc3ccccn3c2C1=O
Solution: 73.2%

Problem: For CC(C)(C)OC[C@@H]1NC(c2ccc(Br)cc2)=Nc2nc3ccccn3c2C1=O , write its growth at 10 µM.
Solution: 94.2%

Problem: Provide growth at 10 µM value for the following compound: C[C@@H]1NC(c2ccc(Cl)cc2)=Nc2nc3ccccn3c2C1=O
Solution: 108%

====

- assay info: Growth inhibition of human OVCAR3 cells assessed as cell growth at 10 uM incubated for 48 hrs by sulforhodamine B assay relative to control
- Assay type: functional
- experimental conditions: OVCAR-3, 48 h, read-out: Activity
Can you tell me growth at 10 µM for the items I'm about to list?
Numeric only. Scale: %

Problem: Consider the compound CC(C)(C)OC[C@@H]1NC(c2ccc(Br)cc2)=Nc2nc3ccccn3c2C1=O and give its recorded growth at 10 µM.
Solution: 34.2

Problem: Identify growth at 10 µM associated with the compound C[C@@H]1NC(c2ccc3ccccc3c2)=Nc2nc3ccccn3c2C1=O
Solution: 16.9

Problem: Query growth at 10 µM for C[C@@H]1NC(c2ccc(Cl)cc2)=Nc2nc3ccccn3c2C1=O
Solution: 84.3

Problem: In one line, give reported growth at 10 µM of the entry C[C@@H]1NC(c2ccc(Cl)cc2Cl)=Nc2nc3ccccn3c2C1=O .
Solution: 2.44
